Entry source: patent US20210139581A1

biological target: T1, human CD33 (human, UniProt P20138 18-259, limits assumed); test: BLI (ForteBio), Fab 100 nM on immobilized CD33
T1 construct: Human CD33 immobilized on the BLI sensor tip or the BIAcore C1 chip; also called Siglec-3
T1 sequence (P20138 18-259 limits assumed): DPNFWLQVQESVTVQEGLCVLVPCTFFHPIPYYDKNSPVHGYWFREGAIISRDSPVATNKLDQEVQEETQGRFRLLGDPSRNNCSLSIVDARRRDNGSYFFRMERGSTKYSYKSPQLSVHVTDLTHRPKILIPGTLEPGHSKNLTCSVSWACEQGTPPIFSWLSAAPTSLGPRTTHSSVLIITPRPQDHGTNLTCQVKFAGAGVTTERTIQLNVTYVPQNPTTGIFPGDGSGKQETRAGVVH
pKd: −log10 of the molar value.

| binder | pKd |
| --- | --- |
| AB-64.1 (antibody, V domains shown) VH: QVQLVQSGAEVKKPGASVKISCKASGYTFTDYNLHWVRQAPGQGLEWIGFIYPSNGITGYAQKFQGRATLTVDNSTSTAYMELSSLRSEDTAVYYCARSDVDYFDYWGQGTLLTVSS VL: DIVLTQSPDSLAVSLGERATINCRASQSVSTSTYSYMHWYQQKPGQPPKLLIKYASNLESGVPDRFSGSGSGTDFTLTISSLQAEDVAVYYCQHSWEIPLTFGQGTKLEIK | 9.05 |
